Values from paper PMC8618934

# assay info: Neutral red uptake assay, viability of normal RPTEC cells
# Assay type: cell-based
# measurement setup: human; 10 µM, 72 h treatment, vs control with 1% DMSO = 100%; read-out: Viability of RPTEC cell line
quantity kind: viability at 72 h, 10 µM (%)
Express your answer in %, writing the number without its unit.

# lookup: viability at 72 h, 10 µM of Cc1nc(-c2ccccc2)nc(NC2CCCCC2)c1CO
89

# evaluate next
# lookup: viability at 72 h, 10 µM of Cc1ccccc1CSc1nc(-c2ccccc2)nc(C)c1CO
91

---

# Lookup of reported melting point keyed by entry
Express your answer in °C, writing the number without its unit.

# lookup: melting point of Cc1nc(-c2ccccc2)nc(NC2CCCCC2)c1CO [Compound 3j]
143

Now give it for CCNc1nc(-c2ccccc2)nc(C)c1CO [Compound 3d] too.
191

Now give it for Cc1nc(-c2ccccc2)nc(NC(C)C)c1CO [Compound 3g] too.
160

Now give it for Cc1nc(-c2ccccc2)nc(NCCO)c1CO [Compound 3i] too.
141

Now give it for Cc1ccccc1CSc1nc(-c2ccccc2)nc(C)c1CO [Compound 3b] too.
147
